test: NCI Yeast Anticancer Drug Screen. Data for the sgs1 mgt1 strain (AID 161); conditions: S. cerevisiae sgs1 mgt1 strain, at 50.0 µM
This is part of a sample that, as a whole, favours compounds with a hit. Of some 79,000 tested, about 15% had one in any assay. The source made the active and inactive calls. Rule as the data show it: active = growth inhibition above about 70%; inactive = the rest.
Possible outcomes: active, inactive

> print(dat)
                                    compound     class
 1                             CCCCCc1ccccn1  inactive
 2  COc1ccc(CC(N)C(=O)OC(C)C)cc1 (configuration not stated)  inactive
 3  Clc1ccc(-c2oc(-c3ccc(Cl)cc3)c3ccccc23)cc1  inactive
 4  COC(=O)CCc1ccc(C2CO2)cc1 (configuration not stated)  inactive
 5                   CS(=O)(=O)/C=C/c1ccccc1  inactive
 6     NC1=Nc2ccccc2Sc2nnc(-c3ccc(Cl)cc3)n21  inactive
 7    COc1ccc2c(O)c(Oc3ccc(Cl)cc3)c(=O)oc2c1  inactive
 8  O=C1NC(Cc2ccc(O)cc2)C(=O)N2CCCC12 (configuration not stated)  inactive
 9  CC1=NC(=Cc2ccc(O)cc2)C(=O)N1n1c(-c2ccccc2)nc2ccccc2c1=O  inactive
10  COc1cc(C(=O)Nc2ccc(S(=O)(=O)Nc3nc(C)cc(C)n3)cc2)cc(OC)c1OC  inactive
11  Cc1nccn1C(C)c1ccccc1 (configuration not stated)  inactive
12  C/C(O)=C(/C=NC(=S)c1ccncc1)C(=O)Nc1ccccc1  inactive
13                           Nc1ccc(O)c(N)c1  inactive
14                       CCNC(=O)C(CC)(CO)CO  inactive
15                COCOc1ccc(-c2ccc(O)cc2)cc1  inactive
16       CC1(C)CC(=O)C(C)(CCc2ccccc2)C(=O)C1  inactive
17  CC(NCc1c(O)ccc2c(-c3ccccc3)cc(=O)oc12)C(=O)O (configuration not stated)  inactive
18  CCCCC1SCC(=O)N1c1nncs1 (configuration not stated)  inactive
19  CN1C/C(=C\c2ccc(C(=O)O)cc2)C(=O)/C(=C/c2ccc(C(=O)O)cc2)C1  inactive
20  Cc1ccc(-n2cnc3c(Cl)ncnc32)cc1[N+](=O)[O-]  inactive
21       CC(C)CN(CC(=O)NC(=O)c1ccccc1)CC(C)C  inactive
22                    CC(/C=N/N(C)C)=N\N(C)C  inactive
23         CN(C=O)c1ccc2c(c1)C(=O)c1ccccc1-2  inactive
24                       CC(=O)Nc1ccc(N)cc1N  inactive
25  O=C(C/C(=C/c1ccccc1)[N+](=O)[O-])c1ccccc1    active
26    N#CCCN(c1ccc(C=O)cc1)S(=O)(=O)c1ccccc1  inactive
27          Cc1c(-c2ccc3c(c2)COC3)sc(N)c1C#N  inactive

Ref: PubChem BioAssay (NCI)
